- Target under test: UniProt P00489
- Sequence (P00489 2-843 limits assumed): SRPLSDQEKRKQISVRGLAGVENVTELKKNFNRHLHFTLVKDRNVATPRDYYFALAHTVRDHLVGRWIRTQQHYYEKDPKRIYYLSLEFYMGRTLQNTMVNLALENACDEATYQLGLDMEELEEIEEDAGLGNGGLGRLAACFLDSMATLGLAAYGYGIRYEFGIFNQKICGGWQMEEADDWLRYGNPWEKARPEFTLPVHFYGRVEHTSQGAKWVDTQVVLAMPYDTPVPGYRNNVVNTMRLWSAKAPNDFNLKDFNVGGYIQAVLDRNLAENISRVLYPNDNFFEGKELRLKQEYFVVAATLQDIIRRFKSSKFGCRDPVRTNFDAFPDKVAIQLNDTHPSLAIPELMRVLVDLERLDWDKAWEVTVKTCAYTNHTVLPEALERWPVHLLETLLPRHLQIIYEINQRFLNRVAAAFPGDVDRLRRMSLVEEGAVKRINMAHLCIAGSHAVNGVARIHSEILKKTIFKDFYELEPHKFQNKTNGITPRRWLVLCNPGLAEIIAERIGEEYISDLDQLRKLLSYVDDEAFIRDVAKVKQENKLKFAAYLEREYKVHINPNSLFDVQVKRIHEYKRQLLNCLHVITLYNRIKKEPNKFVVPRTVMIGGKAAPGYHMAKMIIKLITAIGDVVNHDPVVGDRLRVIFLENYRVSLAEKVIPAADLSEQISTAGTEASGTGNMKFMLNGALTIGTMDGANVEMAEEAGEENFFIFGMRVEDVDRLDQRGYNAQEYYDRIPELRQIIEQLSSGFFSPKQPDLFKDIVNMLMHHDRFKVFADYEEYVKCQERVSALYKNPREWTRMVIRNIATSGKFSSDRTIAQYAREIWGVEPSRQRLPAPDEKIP
Outcome measure: IC50

Form field, IC50 with UniProt P00489, item O=C(Nc1ccc2c(c1)C(=O)NCCO2)c1cc2cc(Cl)ccc2[nH]1 : < 100 nM
